- assay_summary: Pharmacokinetics in rat after intravenous administration
- Type: in vivo
- run_conditions: male rats, intravenous 0.5 mg/kg bolus, plasma, non-compartmental analysis
- Experimental: Male rats (n=3) were given an intravenous 0.5 mg/kg bolus dose of test article dissolved in plasma with 1% DMSO and 1% ethanol (Ex A3 only). Serial blood samples were collected up to 24 hours post-dose. Plasma was harvested from blood samples and stored frozen until sample analysis. Test article plasma concentrations were analyzed by LC/MS/MS.
metric_name: clearance

response.value for CCCNC(=O)Nc1cccc(S(=O)(=O)Nc2cccc([C@@H](CC(=O)O)NC(=O)Nc3ccc(NC(=O)NCCN(C)CCN(C)CCN(C)CC(=O)N[C@@H](CC(N)=O)C(=O)N4CCC[C@H]4C(=O)N[C@H](C(=O)O[C@]4(CC)C(=O)OCc5c4cc4n(c5=O)Cc5c-4nc4ccccc4c5CC)C(C)C)cc3)c2)c1.Cl.Cl.Cl [Compound B4b] (field: clearance) = 0.5 to 5 mL/min/kg

* * *

- System: NCI H292
- assay_summary: Cytotoxicity in vitro in the presence and absence of elastase (MTT assay)
- Assay type: cell-based, human
- run_conditions: NCI H292 cells, with 10 nM elastase, 72 h
metric_name: IC50

These solved cases illustrate the format of a correct answer.
compound=CCCNC(=O)Nc1cccc(S(=O)(=O)Nc2cccc([C@@H](CC(=O)O)NC(=O)Nc3ccc(NC(=O)NCCN(C)CCN(C)CCN(C)CC(=O)N[C@@H](CC(N)=O)C(=O)N4CCC[C@H]4C(=O)N[C@H](C(=O)O[C@]4(CC)C(=O)OCc5c4cc4n(c5=O)Cc5c-4nc4ccccc4c5CC)C(C)C)cc3)c2)c1.Cl.Cl.Cl test_value="0.1 to 1 nM"
compound=CCCNC(=O)Cc1cccc(S(=O)(=O)Nc2cccc([C@H](CC(=O)O)NC(=O)Nc3ccc(NC(=O)NCCOCCOCCOCCC(=O)N[C@@H](CCCCNC(=O)CCOCCOCCOCCNC(=O)Nc4ccc(NC(=O)N[C@@H](CC(=O)O)c5cccc(NS(=O)(=O)c6cccc(NC(=O)NCCC)c6)c5)cc4)C(=O)NCCN(C)CCN(C)CCN(C)CC(=O)N[C@@H](CC(N)=O)C(=O)N4CCC[C@H]4C(=O)N[C@H](C(=O)O[C@]4(CC)C(=O)OCc5c4cc4n(c5=O)Cc5c-4nc4ccccc4c5CC)C(C)C)cc3)c2)c1 test_value="0.1 to 1 nM"
compound=CCCNC(=O)Nc1cccc(S(=O)(=O)Nc2cccc([C@@H](CC(=O)O)NC(=O)Nc3ccc(NC(=O)NCCN(C)CCN(C)CCN(C)CC(=O)N[C@@H](CC(N)=O)C(=O)N4CCC[C@H]4C(=O)N[C@H](C(=O)O[C@]4(CC)C(=O)OCc5c4cc4n(c5=O)Cc5c-4nc4ccccc4c5CC)C(C)C)cc3)c2)c1 test_value="0.01 to 0.1 nM"
compound=CCCNC(=O)Nc1cccc(S(=O)(=O)Nc2cccc([C@@H](CC(=O)OCCCN)NC(=O)Nc3ccc(NC(=O)NCCOCCOCCOCCC(=O)N[C@@H](CC(=O)OCCCN)C(=O)N4CCC[C@H]4C(=O)N[C@H](C(=O)O[C@]4(CC)C(=O)OCc5c4cc4n(c5=O)Cc5c-4nc4ccccc4c5CC)C(C)C)cc3)c2)c1 test_value="0.1 to 1 nM"
compound=CCCNC(=O)Nc1cccc(S(=O)(=O)Nc2cccc([C@@H](CC(=O)O)NC(=O)Nc3ccc(NC(=O)NCCCCN(C)CCN(C)CCN(C)CC(=O)N[C@@H](CCCCNC(=O)CN(C)CCN(C)CCN(C)CCNC(=O)Nc4ccc(NC(=O)N[C@H](CC(=O)O)c5cccc(NS(=O)(=O)c6cccc(NC(=O)NCCC)c6)c5)cc4)C(=O)NCCN(C)CCN(C)CCN(C)CC(=O)N[C@@H](CC(N)=O)C(=O)N4CCC[C@H]4C(=O)N[C@H](C(=O)O[C@]4(CC)C(=O)OCc5c4cc4n(c5=O)Cc5c-4nc4ccccc4c5CC)C(C)C)cc3)c2)c1 test_value="0.1 to 1 nM"

Kindly give each listed record's IC50.
1. CCCNC(=O)Nc1cccc(S(=O)(=O)Nc2cccc([C@@H](CC(=O)O)N(C(=O)NC(N)=O)c3ccc(NCCCCOC(=O)C[C@H](NC(=O)CCOCCOCCOCCNc4ccc(N(C(=O)NC(N)=O)[C@H](CC(=O)O)c5cccc(NS(=O)(=O)c6cccc(NC(=O)NCCC)c6)c5)cc4)C(=O)N4CCC[C@H]4C(=O)N[C@H](C(=O)O[C@]4(CC)C(=O)OCc5c4cc4n(c5=O)Cc5c-4nc4ccccc4c5CC)C(C)C)cc3)c2)c1
2. CCCNC(=O)Nc1cccc(S(=O)(=O)Nc2cccc([C@@H](CC(=O)O)NC(=O)Nc3ccc(NC(=O)NCCOCCOCCOCCC(=O)N[C@@H](CC(=O)OCCCN(C)C)C(=O)N4CCC[C@H]4C(=O)N[C@H](C(=O)O[C@]4(CC)C(=O)OCc5c4cc4n(c5=O)Cc5c-4nc4ccccc4c5CC)C(C)C)cc3)c2)c1

0.01 to 0.1 nM
0.1 to 1 nM

* * *

- Test system: NCI H292
- assay_summary: Cytotoxicity in vitro in the presence and absence of elastase (MTT assay)
- Type: cell-based, human
- run_conditions: NCI H292 cells, compound alone (no elastase), 72 h
Where a name gives a salt, the structure may show the parent alone.
metric_name: IC50

compound="CCCNC(=O)Nc1cccc(S(=O)(=O)Nc2cccc([C@H](CC(=O)O)NC(=O)Nc3ccc(NC(=O)NCCN(C)CCN(C)CCN(C)CC(=O)NCCCC[C@H](NC(=O)CN(C)CCN(C)CCN(C)CCNC(=O)Nc4ccc(NC(=O)N[C@@H](CC(=O)O)c5cccc(NS(=O)(=O)c6cccc(NC(=O)NCCC)c6)c5)cc4)C(=O)NCCN(C)CCN(C)CCN(C)CC(=O)N[C@@H](CC(N)=O)C(=O)N4CCC[C@H]4C(=O)N[C@H](C(=O)O[C@]4(CC)C(=O)OCc5c4cc4n(c5=O)Cc5c-4nc4ccccc4c5CC)C(C)C)cc3)c2)c1 [Compound A8]" test_value="1.1 to 10 nM"
compound="CCCNC(=O)Nc1cccc(S(=O)(=O)Nc2cccc([C@@H](CC(=O)O)NC(=O)Nc3ccc(NC(=O)NCCN(C)CCN(C)CCN(C)CC(=O)NCCN(C)CCN(C)CCN(C)CC(=O)N[C@@H](CC(N)=O)C(=O)N4CCC[C@H]4C(=O)N[C@H](C(=O)O[C@]4(CC)C(=O)OCc5c4cc4n(c5=O)Cc5c-4nc4ccccc4c5CC)C(C)C)cc3)c2)c1 [Compound D1]" test_value="10 to 100 nM"

Now let's try a different one.
Record CCCNC(=O)Nc1cccc(S(=O)(=O)Nc2cccc([C@@H](CC(=O)O)NC(=O)Nc3ccc(NC(=O)NCCOCCOCCOCCC(=O)N[C@@H](CC(=O)OCC[N+](C)(C)C)C(=O)N4CCC[C@H]4C(=O)N[C@H](C(=O)O[C@]4(CC)C(=O)OCc5c4cc4n(c5=O)Cc5c-4nc4ccccc4c5CC)C(C)C)cc3)c2)c1 [Compound C1, trifluoroacetate] , field IC50: 10 to 100 nM

* * *

Assignment: determine reported IC50 for the given compounds.
- Test system: SUM149
- assay_summary: Cytotoxicity in vitro in the presence and absence of elastase (MTT assay)
- Type: cell-based
- run_conditions: SUM149 cells, with 10 nM elastase, 72 h

Consider the following illustrative entries.
query_smiles=CCCNC(=O)Nc1cccc(S(=O)(=O)Nc2cccc([C@@H](CC(=O)O)NC(=O)Nc3ccc(NC(=O)NCCC(=O)NCCCC[C@H](NC(=O)CCNC(=O)Nc4ccc(NC(=O)N[C@H](CC(=O)O)c5cccc(NS(=O)(=O)c6cccc(NC(=O)NCCC)c6)c5)cc4)C(=O)NCCOCCOCCOCCC(=O)N[C@@H](CC(=O)O)C(=O)N4CCC[C@H]4C(=O)N[C@H](C(=O)O[C@]4(CC)C(=O)OCc5c4cc4n(c5=O)Cc5c-4nc4ccccc4c5CC)C(C)C)cc3)c2)c1 metric_name=IC50 test_value="0.01 to 0.1 nM"
query_smiles=CCCNC(=O)Nc1cccc(S(=O)(=O)Nc2cccc([C@@H](CC(=O)O)NC(=O)Nc3ccc(NC(=O)NCCCC[C@H](NC(=O)Nc4ccc(NC(=O)N[C@H](CC(=O)O)c5cccc(NS(=O)(=O)c6cccc(NC(=O)NCCC)c6)c5)cc4)C(=O)NCCOCCOCCOCCC(=O)N[C@@H](CC(=O)O)C(=O)N4CCC[C@H]4C(=O)N[C@H](C(=O)O[C@]4(CC)C(=O)OCc5c4cc4n(c5=O)Cc5c-4nc4ccccc4c5CC)C(C)C)cc3)c2)c1 metric_name=IC50 test_value="0.01 to 0.1 nM"

Shifting focus to the compound that follows.
// field: IC50; key: CCCNC(=O)Nc1cccc(S(=O)(=O)Nc2cccc([C@@H](CC(=O)OCC[N+](C)(C)C)NC(=O)Nc3ccc(NC(=O)NCCOCCOCCOCCC(=O)N[C@@H](CC(=O)OCC[N+](C)(C)C)C(=O)N4CCC[C@H]4C(=O)N[C@H](C(=O)O[C@]4(CC)C(=O)OCc5c4cc4n(c5=O)Cc5c-4nc4ccccc4c5CC)C(C)C)cc3)c2)c1 ; value = 0.1 to 1 nM
